Overview of recorded CLint for various compounds
- runDescription: Intrinsic clearance in Wistar han rat hepatocytes measured per gram of tissue incubated for 60 mins by LC-MS/MS method
- Type: ADME, cell-based, Hepatocyte
- testSettings: 1 h
Note: unit mL/min/g is implicit; provide only the numeric part.

Sample answers from the record:
CNC(=O)c1cc(C(=O)N[C@H]2CC[C@H](O)CC2)c([C@@H](C)c2ccccc2)o1	0.8
CNC(=O)c1cc(C(=O)N[C@H]2CC[C@H](O)CC2)n([C@@H](C)c2ccccc2)n1	0.9

# input for lookup
(Q) // lookup CLint for CNC(=O)c1cc(C(=O)N[C@H]2[C@@H]3C[C@@H](O)C[C@@H]32)n([C@@H](C)c2cccc(Cl)c2)n1
(A) 1

Source listed as ChEMBL document CHEMBL4834464.
